System: LOC_OS01G60330-cb001;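 also: purified Escherichia coli-expressed rice kinase domain construct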
Assay: thermal shift delta Tm vs DMSO control; higher = stronger stabilization (binding)
Settings: 12.5 µM; protein concentration 2 µM
Okay, here is how we bin by thermal shift delta Tm: interval 1: < 0.6 °C; interval 2: ≥ 0.6 °C and < 1 °C; interval 3: ≥ 1 °C

Previously resolved entries follow.
1) COc1ccc(CC(=O)Nc2nc3c(s2)CCc2ccccc2-3)cc1OC    interval 2
2) Cc1cc(Nc2ncnc3ccc(NC4=NC(C)(C)CO4)cc23)ccc1Oc1ccn2ncnc2c1 [Irbinitinib (ARRY-380, ONT-380)]    interval 1

Input line: Looking at O=C(NCc1cccc(O)c1)Nc1nc(-c2ccncc2)cs1 , which class would you pick?
Output line: interval 1

Input line: Looking at O=C(Nc1ccc(OC(F)(F)F)cc1)c1sccc1NCc1ccnc2ccccc12 , which class would you pick?
Output line: interval 3

Input line: Looking at COC(=O)[C@]12CCC(C)(C)C[C@H]1[C@H]1C(=O)C=C3[C@@]4(C)C=C(C#N)C(=O)C(C)(C)[C@@H]4CC[C@@]3(C)[C@]1(C)CC2 [Bardoxolone Methyl] , which class would you pick?
Output line: interval 1

Input line: Looking at COc1ccccc1-c1cc(Nc2cccc(CS(N)(=O)=O)c2)ncn1 , which class would you pick?
Output line: interval 1

Input line: Looking at Nc1[nH]nc2nnc(-c3c(-c4ccccc4)nn4ccccc34)cc12 , which class would you pick?
Output line: interval 3

Input line: Looking at Cn1cc(/C=C2\C(=O)Nc3cccnc32)c2ccccc21 , which class would you pick?
Output line: interval 3

Input line: Looking at NC(=O)c1ccc2nc(-c3ccc(Oc4ccc(Cl)cc4)cc3)[nH]c2c1 [Chk2 Inhibitor II (BML-277)] , which class would you pick?
Output line: interval 3

Input line: Looking at CCn1c(=O)c(-c2cc[nH]n2)cc2c(C)nc(N)nc21 , which class would you pick?
Output line: interval 2
